# assaySummary: qHTS assay to identify small molecule antagonists of the sonic hedgehog signaling (Shh) pathway - cell viability counter screen (AID 1259367); further: nearly all actives have a fitted effect of over 55% in size
# conditionNotes: NIH/3T3 Gli1-Luc viability, CellTiter-Fluor, 24 h; series mostly up to 92.4 µM
# Excerpt: National Center for Advancing Translational Sciences [NCATS] NIH Chemical Genomics Center [NCGC] U.S. Environmental Protection Agency [EPA] National Institutes of Environmental Health Sciences [NIEHS] National Toxicology Program [NTP] U.S. Food and Drug Administration [FDA] The sonic hedgehog (Shh) pathway is essential for normal embryonic development. Dysregulation of the Shh pathway can cause severe developmental defects in organs. […]
Records with an inconclusive call do not appear. Calls of active or inactive are those of the source. The call rests on the fitted dose curve; in most records, active means well fitted cell-killing curve with a large enough effect in the repeat runs; inconclusive means weak or mixed curves, or effect the other way; inactive means no such curve, though single readings can be large or run the other way.
Use one of these outcomes when replying: 1 (yes) for active, 0 (no) for inactive

Please review the following examples before continuing.
CC(CC1c2ccccc2CCc2ccccc21)CN(C)C (stereo unspecified); 0 (no)
CCCCCCCCOc1ccc(C(=O)O)cc1; 0 (no)
O=C(/C=C/c1ccccc1)OCCc1ccccc1; 0 (no)
CCOC(C)=O; 0 (no)
O=Cc1c2ccccc2c(Cl)c2ccccc12; 0 (no)

Query molecule follows.
### Prompt Any idea what this test logged for CC(C)c1nc(CN(C)C(=O)N[C@H](C(=O)N[C@@H](Cc2ccccc2)C[C@H](O)[C@H](Cc2ccccc2)NC(=O)OCc2cncs2)C(C)C)cs1 ?
### Response 1 (yes)
